Biological target: Acetylcholinesterase (Electrophorus electricus, UniProt O42275)
Sequence (O42275 whole entry): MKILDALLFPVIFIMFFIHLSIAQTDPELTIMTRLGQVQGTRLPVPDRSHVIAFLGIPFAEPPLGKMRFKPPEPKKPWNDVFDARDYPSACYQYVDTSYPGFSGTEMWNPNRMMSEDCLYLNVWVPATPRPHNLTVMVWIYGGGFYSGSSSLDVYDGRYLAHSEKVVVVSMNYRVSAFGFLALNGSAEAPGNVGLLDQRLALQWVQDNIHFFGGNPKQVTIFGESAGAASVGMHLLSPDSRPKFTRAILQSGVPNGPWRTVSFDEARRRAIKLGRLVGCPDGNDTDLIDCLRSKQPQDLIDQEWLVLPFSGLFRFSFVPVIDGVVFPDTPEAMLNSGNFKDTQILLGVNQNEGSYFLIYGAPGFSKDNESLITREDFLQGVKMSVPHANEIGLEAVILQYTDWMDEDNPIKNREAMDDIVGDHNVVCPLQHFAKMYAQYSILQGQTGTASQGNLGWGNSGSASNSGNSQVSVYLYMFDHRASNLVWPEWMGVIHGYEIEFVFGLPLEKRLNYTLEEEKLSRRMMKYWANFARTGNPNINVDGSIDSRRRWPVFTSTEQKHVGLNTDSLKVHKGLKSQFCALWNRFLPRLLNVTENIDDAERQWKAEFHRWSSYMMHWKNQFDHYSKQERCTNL
Assay: AChE/BuChE Inhibition Assay: The cholinesterase assays were performed using colorimetric method reported by Ellman. The appearance of product was monitored at 412 nm for 5 min using a spectrophotometer. The reaction rates were compared and the percent inhibition due to the presence of test compounds was calculated. Inhibition curve was obtained for each compound. The linear regression parameters were determined and the IC50 values extrapolated.
experimental.endpoint: IC50 (nM)
Number only, in nM; omit the unit.

COc1ccc2nc(NCCc3cc[n+](Cc4c(F)cccc4F)cc3)sc2c1 ... 408
Fc1ccc(C[n+]2ccc(CCNc3nc4ccc(F)cc4s3)cc2)cc1 ... 500

Query: Tell me reported IC50 for COc1ccc2nc(NCCc3cc[n+](Cc4ccc(F)cc4)cc3)sc2c1 , tested with Acetylcholinesterase (Electrophorus electricus, UniProt O42275).
Response: 542

Query: Another molecule to check: O=[N+]([O-])c1ccc2nc(NCCc3cc[n+](Cc4ccc(F)cc4)cc3)sc2c1
Response: 25

Query: Again, but for COc1ccc2nc(NCCc3cc[n+](Cc4ccccc4)cc3)sc2c1
Response: 441

====

Reported log10 of IC50 values for a set of compounds
Target: Cholinesterase (Homo sapiens, UniProt P06276)
Sequence (P06276 whole entry): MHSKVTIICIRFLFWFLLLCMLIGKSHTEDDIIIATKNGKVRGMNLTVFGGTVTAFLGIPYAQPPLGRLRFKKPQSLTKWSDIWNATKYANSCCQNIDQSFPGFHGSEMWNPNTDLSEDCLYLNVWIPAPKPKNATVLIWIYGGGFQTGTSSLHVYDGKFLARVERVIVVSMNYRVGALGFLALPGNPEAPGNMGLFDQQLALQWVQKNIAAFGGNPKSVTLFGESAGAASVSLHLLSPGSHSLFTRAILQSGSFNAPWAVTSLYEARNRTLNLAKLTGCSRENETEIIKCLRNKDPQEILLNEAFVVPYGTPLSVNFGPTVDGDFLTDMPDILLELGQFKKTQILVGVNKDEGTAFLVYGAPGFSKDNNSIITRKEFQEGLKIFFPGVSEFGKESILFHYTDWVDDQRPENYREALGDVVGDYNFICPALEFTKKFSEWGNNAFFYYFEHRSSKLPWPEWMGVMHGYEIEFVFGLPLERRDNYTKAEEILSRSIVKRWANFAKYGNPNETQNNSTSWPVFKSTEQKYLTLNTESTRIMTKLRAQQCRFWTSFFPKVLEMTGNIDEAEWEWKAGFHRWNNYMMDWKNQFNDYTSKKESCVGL
Assay: AChE/BuChE Inhibition Assay: The cholinesterase assays were performed using colorimetric method reported by Ellman. The appearance of product was monitored at 412 nm for 5 min using a spectrophotometer. The reaction rates were compared and the percent inhibition due to the presence of test compounds was calculated. Inhibition curve was obtained for each compound. The linear regression parameters were determined and the IC50 values extrapolated.
Each number you see is log10 of IC50, and the unit inside the log is µM.

Below: 4 compounds and their reported log10 of IC50.
O=[N+]([O-])c1ccc2nc(NCCc3cc[n+](Cc4ccc(F)cc4)cc3)sc2c1 ... 1.08
COc1ccc2nc(NCCc3cc[n+](Cc4ccc(F)cc4)cc3)sc2c1 ... 0.75
COc1ccc2nc(NCCc3cc[n+](Cc4c(F)cccc4F)cc3)sc2c1 ... -0.08
COc1ccc2nc(NCCc3cc[n+](Cc4ccccc4)cc3)sc2c1 ... 0.48

Alright, here's another compound for you.
Query: For Fc1ccc(C[n+]2ccc(CCNc3nc4ccc(F)cc4s3)cc2)cc1 , what is its reported log10 of IC50?
Response: 0.91

====

Target: Acetylcholinesterase (Homo sapiens)
Sequence (P22303 whole entry): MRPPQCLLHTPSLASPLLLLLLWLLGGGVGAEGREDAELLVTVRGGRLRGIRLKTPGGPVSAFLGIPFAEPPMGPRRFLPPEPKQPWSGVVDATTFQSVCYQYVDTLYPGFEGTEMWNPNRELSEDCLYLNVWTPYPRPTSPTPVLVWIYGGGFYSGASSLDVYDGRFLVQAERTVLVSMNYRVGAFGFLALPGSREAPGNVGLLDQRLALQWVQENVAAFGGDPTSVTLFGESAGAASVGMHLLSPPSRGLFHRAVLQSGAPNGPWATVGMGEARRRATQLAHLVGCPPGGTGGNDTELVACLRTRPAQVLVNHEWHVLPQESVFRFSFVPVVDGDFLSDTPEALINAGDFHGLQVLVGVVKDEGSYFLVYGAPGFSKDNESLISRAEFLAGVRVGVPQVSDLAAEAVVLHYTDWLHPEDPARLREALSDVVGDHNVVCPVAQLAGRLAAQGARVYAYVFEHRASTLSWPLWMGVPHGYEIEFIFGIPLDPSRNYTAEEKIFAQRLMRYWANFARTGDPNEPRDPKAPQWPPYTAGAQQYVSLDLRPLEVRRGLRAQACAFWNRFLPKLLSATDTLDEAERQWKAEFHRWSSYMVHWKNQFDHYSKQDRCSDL
Assay: AChE/BuChE Inhibition Assay: The cholinesterase assays were performed using colorimetric method reported by Ellman. The appearance of product was monitored at 412 nm for 5 min using a spectrophotometer. The reaction rates were compared and the percent inhibition due to the presence of test compounds was calculated. Inhibition curve was obtained for each compound. The linear regression parameters were determined and the IC50 values extrapolated.
experimental.endpoint: pIC50
Scale note: pIC50 = -log10(concentration in M).

COc1ccc2nc(NCCc3cc[n+](Cc4ccc(F)cc4)cc3)sc2c1 ... 6.65
COc1ccc2nc(NCCc3cc[n+](Cc4ccccc4)cc3)sc2c1 ... 6.73
O=[N+]([O-])c1ccc2nc(NCCc3cc[n+](Cc4ccc(F)cc4)cc3)sc2c1 ... 7.02
Fc1ccc(C[n+]2ccc(CCNc3nc4ccc(F)cc4s3)cc2)cc1 ... 6.57

// moving on: another record for pIC50
Query: What is its pIC50 for Acetylcholinesterase (Homo sapiens)? Entry: COc1ccc2nc(NCCc3cc[n+](Cc4c(F)cccc4F)cc3)sc2c1
Response: 6.69

Hey, just so you know, these numbers are from ChEMBL document CHEMBL3886513.
